target: CDK9/CycT1 (Homo sapiens (Human), UniProt P50750)
Sequence (P50750 whole entry): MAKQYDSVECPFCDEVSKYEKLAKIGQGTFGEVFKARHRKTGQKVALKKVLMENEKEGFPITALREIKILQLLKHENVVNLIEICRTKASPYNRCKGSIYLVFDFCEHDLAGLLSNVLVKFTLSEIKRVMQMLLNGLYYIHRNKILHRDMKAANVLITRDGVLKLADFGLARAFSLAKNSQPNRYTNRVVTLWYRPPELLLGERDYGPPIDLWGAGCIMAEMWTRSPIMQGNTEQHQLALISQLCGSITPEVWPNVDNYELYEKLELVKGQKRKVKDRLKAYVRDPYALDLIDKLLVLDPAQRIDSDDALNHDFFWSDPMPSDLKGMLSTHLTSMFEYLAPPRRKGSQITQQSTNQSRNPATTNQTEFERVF
Sequence (O60563 whole entry partner): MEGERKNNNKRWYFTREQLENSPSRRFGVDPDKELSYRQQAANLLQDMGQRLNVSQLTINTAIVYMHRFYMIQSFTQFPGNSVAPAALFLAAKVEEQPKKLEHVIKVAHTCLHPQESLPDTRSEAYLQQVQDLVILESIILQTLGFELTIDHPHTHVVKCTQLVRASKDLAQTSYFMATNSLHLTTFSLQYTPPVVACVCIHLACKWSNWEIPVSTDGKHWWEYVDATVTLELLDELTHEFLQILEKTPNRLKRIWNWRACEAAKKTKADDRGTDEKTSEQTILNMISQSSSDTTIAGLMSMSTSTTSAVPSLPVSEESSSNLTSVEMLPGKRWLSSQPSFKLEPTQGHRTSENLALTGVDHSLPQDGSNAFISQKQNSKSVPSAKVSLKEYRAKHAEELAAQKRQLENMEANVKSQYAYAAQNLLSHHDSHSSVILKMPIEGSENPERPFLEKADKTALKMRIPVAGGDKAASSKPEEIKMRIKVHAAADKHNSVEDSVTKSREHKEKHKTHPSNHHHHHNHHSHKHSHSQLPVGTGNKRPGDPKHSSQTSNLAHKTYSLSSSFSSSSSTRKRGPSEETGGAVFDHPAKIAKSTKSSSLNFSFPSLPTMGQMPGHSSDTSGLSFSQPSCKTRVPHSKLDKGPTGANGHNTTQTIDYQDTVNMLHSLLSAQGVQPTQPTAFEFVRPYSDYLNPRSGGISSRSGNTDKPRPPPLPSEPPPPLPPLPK
experiment: CDK9/CycT1 kinase assay (TR-FRET, 10 μM ATP)
Type: biochemical
recorded_conditions: Method 1a
From the text: 1a. CDK9/CycT1 Kinase Assay: CDK9/CycT1-inhibitory activity of compounds of the present invention was quantified employing the CDK9/CycT1 TR-FRET assay as described in the following paragraphs: Recombinant full-length His-tagged human CDK9 and CycT1, expressed in insect cells and purified by Ni-NTA affinity chromatography, were purchased from Invitrogen (Cat. No PV4131). […]
quantity_measured: pIC50
Just the number, please; pIC50 means minus log10 of the concentration in mol/L.

Task: Requested field: pIC50. Item: `COc1cc(F)ccc1-c1cc(Nc2cc(CS(C)(=O)=O)ccn2)ncc1F`
Output: 8.70

Task: Requested field: pIC50. Item: `COc1cc(F)ccc1-c1cc(Nc2cc(CS(C)(=O)=O)cc(C(F)F)n2)ncc1F`
Output: 8.70

Task: Requested field: pIC50. Item: `COc1cc(F)ccc1-c1cc(Nc2cc(CS(C)(=O)=O)cc(C(F)(F)F)n2)ncc1F`
Output: 8.40

Task: Requested field: pIC50. Item: `COc1cc(F)ccc1-c1cc(Nc2cc(CS(C)(=O)=O)cc(C)n2)ncc1F`
Output: 8.52

Task: Requested field: pIC50. Item: `COc1cc(F)ccc1-c1cc(Nc2cc(CS(C)(=O)=O)cc(F)n2)ncc1F`
Output: 8.52

---

target: CDK2/CycE (Homo sapiens (Human))
experiment: CDK2/CycE kinase assay (TR-FRET, 10 μM ATP)
Assay type: biochemical
recorded_conditions: Method 2a
From the text: 2a. CDK2/CycE Kinase Assay: CDK2/CycE-inhibitory activity of compounds of the present invention was quantified employing the CDK2/CycE TR-FRET assay as described in the following paragraphs: Recombinant fusion proteins of GST and human CDK2 and of GST and human CycE, expressed in insect cells (Sf9) and purified by Glutathion-Sepharose affinity chromatography, were purchased from ProQinase GmbH (Freiburg, Germany). […]
quantity_measured: pIC50
Just the number, please; pIC50 means minus log10 of the concentration in mol/L.

Task: Requested field: pIC50. Item: `COc1cc(F)ccc1-c1cc(Nc2cc(CS(C)(=O)=O)cc(C(F)F)n2)ncc1F`
Output: 8.15

Task: Requested field: pIC50. Item: `COc1cc(F)ccc1-c1cc(Nc2cc(CS(C)(=O)=O)ccn2)ncc1F`
Output: 6.77

Task: Requested field: pIC50. Item: `COc1cc(F)ccc1-c1cc(Nc2cc(CS(C)(=O)=O)cc(C)n2)ncc1F`
Output: 7.15

Task: Requested field: pIC50. Item: `COc1cc(F)ccc1-c1cc(Nc2cc(CS(C)(=O)=O)cc(C(F)(F)F)n2)ncc1F`
Output: 7.28

Task: Requested field: pIC50. Item: `COc1cc(F)ccc1-c1cc(Nc2cc(CS(C)(=O)=O)cc(F)n2)ncc1F`
Output: 7.19

---

target: CDK2/CycE (Homo sapiens (Human), UniProt P24941)
experiment: CDK2/CycE high ATP kinase assay (TR-FRET, 2 mM ATP)
Type: biochemical
recorded_conditions: Method 2b
quantity_measured: IC50 (nM)
Your answer is read as nM, so omit the unit and give the number.

Task: Requested field: IC50. Item: `COc1cc(F)ccc1-c1cc(Nc2cc(CS(C)(=O)=O)cc(F)n2)ncc1F`
Output: 787

Task: Requested field: IC50. Item: `COc1cc(F)ccc1-c1cc(Nc2cc(CS(C)(=O)=O)cc(C(F)F)n2)ncc1F`
Output: 103

Task: Requested field: IC50. Item: `COc1cc(F)ccc1-c1cc(Nc2cc(CS(C)(=O)=O)cc(C)n2)ncc1F`
Output: 625

Task: Requested field: IC50. Item: `COc1cc(F)ccc1-c1cc(Nc2cc(CS(C)(=O)=O)ccn2)ncc1F`
Output: 2180

Task: Requested field: IC50. Item: `COc1cc(F)ccc1-c1cc(Nc2cc(CS(C)(=O)=O)cc(C(F)(F)F)n2)ncc1F`
Output: 169

---

Test system: DU 145, hormone-independent human prostate carcinoma cells
experiment: Proliferation assay, DU145 (crystal violet)
Format: cell-based
recorded_conditions: DU-145, 96 h, DU145, 4 days, read-out: Inhibition of DU145 cell proliferation IC50
quantity_measured: IC50 (nM)
Your answer is read as nM, so omit the unit and give the number.

Task: Requested field: IC50. Item: `COc1cc(F)ccc1-c1cc(Nc2cc(CS(C)(=O)=O)cc(C)n2)ncc1F`
Output: 84

Task: Requested field: IC50. Item: `COc1cc(F)ccc1-c1cc(Nc2cc(CS(C)(=O)=O)ccn2)ncc1F`
Output: 56

---

experiment: Caco-2 permeation assay
Format: in vitro ADME
recorded_conditions: human, pH 7.2; Papp B-A / Papp A-B, Caco-2, 2 μM test compound
Description: 4. Caco-2 Permeation Assay: Caco-2 cells (purchased from DSMZ Braunschweig, Germany) were seeded at a density of 4.5×10^4 cells per well on 24 well insert plates, 0.4 μm pore size, and grown for 15 days in DMEM medium supplemented with 10% fetal bovine serum, 1% GlutaMAX (100×, GIBCO), 100 U/mL penicillin, 100 μg/mL streptomycin (GIBCO) and 1% non essential amino acids (100×). […] For assessment of monolayer integrity the transepithelial electrical resistance (TEER) was measured. […]
quantity_measured: efflux ratio at 2 h, 2 μM
Form: value (number only, do not type unit).

Task: Requested field: efflux ratio at 2 h, 2 μM. Item: COc1cc(F)ccc1-c1cc(Nc2cc(CS(C)(=O)=O)ccn2)ncc1F [Example 1]
Output: 0.49

---

target: CDK9/CycT1 (Homo sapiens (Human), UniProt P50750)
experiment: CDK9/CycT1 high ATP kinase assay (TR-FRET, 2 mM ATP)
Assay type: biochemical
recorded_conditions: Method 1b
quantity_measured: pIC50
Just the number, please; pIC50 means minus log10 of the concentration in mol/L.

Task: Requested field: pIC50. Item: `COc1cc(F)ccc1-c1cc(Nc2cc(CS(C)(=O)=O)cc(F)n2)ncc1F`
Output: 8.70

Task: Requested field: pIC50. Item: `COc1cc(F)ccc1-c1cc(Nc2cc(CS(C)(=O)=O)cc(C(F)F)n2)ncc1F`
Output: 9.00

Task: Requested field: pIC50. Item: `COc1cc(F)ccc1-c1cc(Nc2cc(CS(C)(=O)=O)cc(C)n2)ncc1F`
Output: 8.70

Task: Requested field: pIC50. Item: `COc1cc(F)ccc1-c1cc(Nc2cc(CS(C)(=O)=O)cc(C(F)(F)F)n2)ncc1F`
Output: 8.52

Task: Requested field: pIC50. Item: `COc1cc(F)ccc1-c1cc(Nc2cc(CS(C)(=O)=O)ccn2)ncc1F`
Output: 8.70
